Reported Relative CP-DAA by item:
substrate: CP C3-convertase (C4b2a) (UniProt P0C0L4); test: cell-based or functional assay
Sequence (P0C0L4 757-1446 limits assumed, chain 1 of 4): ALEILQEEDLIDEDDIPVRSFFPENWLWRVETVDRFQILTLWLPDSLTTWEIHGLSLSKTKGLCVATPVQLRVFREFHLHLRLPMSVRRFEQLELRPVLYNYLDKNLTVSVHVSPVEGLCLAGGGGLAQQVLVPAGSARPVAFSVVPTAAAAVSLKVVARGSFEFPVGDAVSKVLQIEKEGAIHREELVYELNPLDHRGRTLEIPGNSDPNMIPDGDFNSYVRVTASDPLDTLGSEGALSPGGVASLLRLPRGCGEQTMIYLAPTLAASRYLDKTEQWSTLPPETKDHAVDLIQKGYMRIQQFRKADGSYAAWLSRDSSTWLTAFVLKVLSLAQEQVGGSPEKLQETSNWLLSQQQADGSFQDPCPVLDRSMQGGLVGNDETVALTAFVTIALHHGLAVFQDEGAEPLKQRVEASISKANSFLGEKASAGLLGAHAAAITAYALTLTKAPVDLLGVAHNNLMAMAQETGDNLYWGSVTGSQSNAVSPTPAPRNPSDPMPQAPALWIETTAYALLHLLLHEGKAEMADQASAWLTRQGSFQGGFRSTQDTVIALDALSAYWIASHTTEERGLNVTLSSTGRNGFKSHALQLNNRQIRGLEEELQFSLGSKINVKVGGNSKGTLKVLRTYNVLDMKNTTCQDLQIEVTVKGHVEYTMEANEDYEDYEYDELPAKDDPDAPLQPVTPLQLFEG
Sequence (P0C0L4 20-675 limits assumed, chain 2 of 4): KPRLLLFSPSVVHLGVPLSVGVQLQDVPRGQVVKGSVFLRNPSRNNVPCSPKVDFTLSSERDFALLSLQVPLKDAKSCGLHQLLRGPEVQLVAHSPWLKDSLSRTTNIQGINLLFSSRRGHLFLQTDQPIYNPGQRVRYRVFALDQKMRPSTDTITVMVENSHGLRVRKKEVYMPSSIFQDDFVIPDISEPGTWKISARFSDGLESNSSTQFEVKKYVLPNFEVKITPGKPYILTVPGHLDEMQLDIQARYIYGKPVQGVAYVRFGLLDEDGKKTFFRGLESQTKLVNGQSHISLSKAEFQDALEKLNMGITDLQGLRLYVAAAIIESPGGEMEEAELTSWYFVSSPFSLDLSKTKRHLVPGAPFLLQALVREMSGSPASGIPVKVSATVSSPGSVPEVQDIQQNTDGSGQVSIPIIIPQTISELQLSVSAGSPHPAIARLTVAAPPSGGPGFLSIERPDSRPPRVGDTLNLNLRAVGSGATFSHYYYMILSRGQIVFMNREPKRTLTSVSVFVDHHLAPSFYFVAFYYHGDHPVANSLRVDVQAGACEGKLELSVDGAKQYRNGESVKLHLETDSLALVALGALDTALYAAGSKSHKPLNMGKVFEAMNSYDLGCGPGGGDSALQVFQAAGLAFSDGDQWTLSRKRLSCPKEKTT
Sequence (P0C0L4 1454-1744 limits assumed, chain 3 of 4): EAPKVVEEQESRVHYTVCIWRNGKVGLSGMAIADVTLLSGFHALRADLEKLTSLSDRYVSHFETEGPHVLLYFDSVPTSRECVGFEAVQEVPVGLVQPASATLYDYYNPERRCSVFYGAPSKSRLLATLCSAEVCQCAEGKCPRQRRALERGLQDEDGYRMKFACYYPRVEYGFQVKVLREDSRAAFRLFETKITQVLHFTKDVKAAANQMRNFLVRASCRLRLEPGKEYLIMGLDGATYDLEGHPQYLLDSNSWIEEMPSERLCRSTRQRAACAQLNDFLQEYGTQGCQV
Sequence (P06681 244-752 limits assumed, chain 4 of 4, further chain): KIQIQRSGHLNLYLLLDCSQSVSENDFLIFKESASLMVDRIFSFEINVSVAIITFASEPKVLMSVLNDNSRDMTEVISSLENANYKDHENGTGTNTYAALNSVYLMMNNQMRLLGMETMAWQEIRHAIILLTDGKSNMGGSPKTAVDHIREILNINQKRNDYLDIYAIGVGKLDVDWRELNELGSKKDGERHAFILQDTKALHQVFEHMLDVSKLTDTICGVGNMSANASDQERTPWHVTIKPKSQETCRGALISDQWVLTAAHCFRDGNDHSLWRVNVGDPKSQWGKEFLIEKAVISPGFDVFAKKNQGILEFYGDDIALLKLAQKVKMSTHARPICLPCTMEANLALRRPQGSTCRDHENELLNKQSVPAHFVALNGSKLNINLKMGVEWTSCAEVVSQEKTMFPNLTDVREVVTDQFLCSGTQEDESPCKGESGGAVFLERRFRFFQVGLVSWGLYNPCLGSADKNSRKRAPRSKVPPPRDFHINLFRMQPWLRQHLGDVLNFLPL
Give the figure only, with no unit attached.

Answered cases to consult:
Exercise: Sample D2D3M3M4 (Multi-1) (protein) CEVPTRLNSASLKQPYITQNYFPVGTVVEYECRPGYRREPSLSPKLTCLQNLKWSTAVEFCKKKSCPNPGEIRNGQIDVPGGILFGATISFSCNTGYKLFGSTSSFCLISGSSVQWSDPLPICEKVLCTPPPKIKNGKHTFSEVEVFEYLDAVTYSCDPAPGPDPFSLIGESTIYCGDNSVWSRAAPECKVVKCRFPVVENGKQISGFGKKFYYKATVMFECDKGFYLDGSDTIVCDSNSTWDPPVPKCLKVL — what was its Relative CP-DAA?
Key: 0.7

Exercise: Also D2D3M3M4 (K195Y) (protein) CEVPTRLNSASLKQPYITQNYFPVGTVVEYECRPGYRREPSLSPKLTCLQNLKWSTAVEFCKKKSCPNPGEIRNGQIDVPGGILFGATISFSCNTGYYLFGSTSSFCLISGSSVQWSDPLPECREIYCTPPPKIKNGKHTFSEVEVFEYLDAVTYSCDPAPGPDPFSLIGESTIYCGDNSVWSRAAPECKVVKCRFPVVENGKQISGFGKKFYYKATVMFECDKGFYLDGSDTIVCDSNSTWDPPVPKCLKVL , if possible.
Key: 6.2

Let's switch to this binder now.
Exercise: Sample D2D3M3M4 (T192E) (protein) CEVPTRLNSASLKQPYITQNYFPVGTVVEYECRPGYRREPSLSPKLTCLQNLKWSTAVEFCKKKSCPNPGEIRNGQIDVPGGILFGATISFSCNEGYKLFGSTSSFCLISGSSVQWSDPLPECREIYCTPPPKIKNGKHTFSEVEVFEYLDAVTYSCDPAPGPDPFSLIGESTIYCGDNSVWSRAAPECKVVKCRFPVVENGKQISGFGKKFYYKATVMFECDKGFYLDGSDTIVCDSNSTWDPPVPKCLKVL — what was its Relative CP-DAA?
Key: 1
